- TEST DESCRIPTION: in vitro
- Format: cell-based
- TEST PARAMETERS: human, u937 cells; 10^-9 M; MTT method
VALUE TYPE: cytotoxicity at 0.001 µM (%)

COMPOUND	VALUE TYPE	NUMERIC RESULT
COCC(OC)C(=O)OC(CCC(C)C(CC1OC(=O)CC(O)C/C=C/C(=O)C(C)C(OC)c2coc(n2)-c2coc(n2)-c2coc(n2)/C=C/CC(OC)C1C)OC)C(C)C(OC(C)=O)C(C)/C=C/N(C)C=O (stereo not shown) [Mycalolide B]	cytotoxicity at 0.001 µM	1.5

// provenance: patent US5760065A
